# assayNotes: compounds binding Alexa647 anti-His antibody – biochemical, small-molecule microarray, 635 nm fluorescence, artefact control for SMM control protein annotation, primary screen (AID 1128);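 note: score merges feature fluorescence with signal-to-noise for each printed compound spot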
# conditionDetails: higher = more signal
parameterMeasured: composite z-score
Reply with the value as a number alone.

compound	composite z-score
O=C1c2ccccc2[C@@]2(Cc3ccccc3N(Cc3ccccc3)C2=O)[C@H](c2ccc(CO)cc2)N1Cc1ccccc1Cl	-0.743
COc1ccc([Si](C)(C)[C@H]2[C@H](CCO)O[C@@]3(C(=O)N(Cc4cccc(N(C=O)c5ccccc5)c4)c4ccccc43)[C@@H]2C)cc1	0.911
C=C(COC)C(=O)CC[C@H](OC(=O)c1cccnc1)c1ccc(OCCO)cc1	-0.108
COc1ccc([Si](C)(C)[C@@H]2[C@@H](CC(=O)N3CCC[C@H]3CO)O[C@]3(C(=O)N(Cc4ccc(N5CCOC5=O)cc4)c4ccccc43)[C@H]2C)cc1	1.02
COCCOC(=O)N1C(=O)[C@@]2(c3cc(C#CCC(C(=O)OC)C(=O)OC)ccc31)[C@H](C(N)=O)[C@H]1C(=O)O[C@H](c3ccccc3)[C@H](c3ccccc3)N1[C@@H]2c1ccc(O)cc1	2.22

## Input Give recorded composite z-score. `CC(C)C(=C=CC[C@H](O)c1ccccc1OCCO)C[C@H](O)c1cc(Cl)cc(Cl)c1O`
## Output -0.287

## Input Give recorded composite z-score. CCOc1cc(C(O)C2C=CC3C(=O)N(c4ccccc4)C(=O)C3N2Nc2ccccc2F)ccc1O (stereo not given)
## Output 0.532
